Source of measurements: patent US7271239B2

tested on: HOK-16B cells; experiment: MTS cell viability assay; format: cell-based, human
OBSERVATION TYPE: IC50 (µM)
Could you give me the number in µM? Just the number is fine.

Challenge: Specify measured IC50 for C[C@@H]1[C@H](O)[C@@H](C)/C=C/C=C/C=C/C=C/C=C/C=C/C=C/[C@H](O[C@@H]2O[C@H](C)[C@@H](O)[C@H](N)[C@@H]2O)C[C@@H]2O[C@](O)(C[C@@H](O)C[C@@H](O)[C@H](O)CC[C@@H](O)C[C@@H](O)CC(=O)O[C@H]1C)C[C@H](O)[C@H]2C(=O)O [Amphotericin B] .
Response given: 100
